Listing of entries alongside the reported NMR with CBFβ + 250 uM compound, CSP G 112.
# assayed_target: CBFβ (Homo sapiens (Human), UniProt Q13951)
# Sequence (Q13951 1-141, species assumed): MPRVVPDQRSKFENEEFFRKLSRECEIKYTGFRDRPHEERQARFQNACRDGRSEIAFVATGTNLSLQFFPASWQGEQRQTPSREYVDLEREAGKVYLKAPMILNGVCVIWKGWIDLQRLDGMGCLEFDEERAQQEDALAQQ
# protocol_notes: NMR chemical shift perturbation with CBFβ
# Type: binding
# conditions_used: 250 uM compound; residue G 112
Numbers only; they are read as ppm.

Previously resolved entries follow.
>  <compound>
c1ccc(-c2nc3cc(N4CCCC4)ccc3[nH]2)nc1

>  <assayed_target>
CBFβ (Homo sapiens (Human), UniProt Q13951)

>  <value>
0.087

$$$$
>  <compound>
COc1ccc2[nH]c(-c3ccccn3)nc2c1 [NCI-320656, reference compound]

>  <assayed_target>
CBFβ (Homo sapiens (Human), UniProt Q13951)

>  <value>
0.039

$$$$
>  <compound>
c1ccc(-c2nc3cc(N4CCCCC4)ccc3[nH]2)nc1

>  <assayed_target>
CBFβ (Homo sapiens (Human), UniProt Q13951)

>  <value>
0.032

$$$$
>  <compound>
FC(F)(F)Oc1cc2nc(-c3ccccn3)[nH]c2cc1N1CCCC1

>  <assayed_target>
CBFβ (Homo sapiens (Human), UniProt Q13951)

>  <value>
0.012

$$$$
>  <compound>
COc1ccc2[nH]c(-c3ncccc3OC)nc2c1

>  <assayed_target>
CBFβ (Homo sapiens (Human), UniProt Q13951)

>  <value>
0.028

$$$$

Lookup: Give a short answer stating reported NMR with CBFβ + 250 uM compound, CSP G 112 for CSc1ccc2[nH]c(-c3ccccn3)nc2c1 .
Found: 0.037

Lookup: Give a short answer stating reported NMR with CBFβ + 250 uM compound, CSP G 112 for CCOc1ccc2[nH]c(-c3ccccn3)nc2c1 .
Found: 0.026

Lookup: Give a short answer stating reported NMR with CBFβ + 250 uM compound, CSP G 112 for CN(C)c1ccc2[nH]c(-c3ccccn3)nc2c1 .
Found: 0.037

Lookup: Give a short answer stating reported NMR with CBFβ + 250 uM compound, CSP G 112 for COc1ccc2[nH]c(-c3ccccn3)nc2c1 [AI-4-57] .
Found: 0.039

Lookup: Give a short answer stating reported NMR with CBFβ + 250 uM compound, CSP G 112 for COc1ccc(-c2nc3cc(OC)ccc3[nH]2)nc1 .
Found: 0.015

====

# assayed_target: CBFβ (Homo sapiens (Human), UniProt Q13951)
# protocol_notes: NMR chemical shift perturbation with CBFβ
# Type: binding
# conditions_used: 250 uM compound; residue K 98
# From the text: Validation of binding of a small molecule inhibitor to its protein target is an essential step in developing potent inhibitors. This can be readily achieved using either NMR spectroscopy or X-ray crystallography. In the case of X-ray crystallography, this is achieved by co-crystallization of the protein with the ligand and determination of the structure. In the case of NMR spectroscopy, the structure of a compound-protein complex can also be determined. […]
measured_quantity: NMR with CBFβ + 250 uM compound, CSP K 98 (ppm)
Numbers only; they are read as ppm.

>  <compound>
COc1ccc2[nH]c(-c3ncccc3OC)nc2c1 [AI-10-53]

>  <unit_string>
ppm

>  <value>
0.02

$$$$
>  <compound>
c1ccc(-c2nc3cc(N4CCCCC4)ccc3[nH]2)nc1 [AI-10-82]

>  <unit_string>
ppm

>  <value>
0.016

$$$$

Lookup: Give a short answer stating reported NMR with CBFβ + 250 uM compound, CSP K 98 for FC(F)(F)Oc1cc2nc(-c3ccccn3)[nH]c2cc1N1CCCC1 [AI-10-97] .
Found: 0.006

Lookup: Give a short answer stating reported NMR with CBFβ + 250 uM compound, CSP K 98 for COc1ccc2[nH]c(-c3ccccn3)nc2c1 [AI-4-57] .
Found: 0.026

====

# assayed_target: CBFβ (Homo sapiens (Human))
# protocol_notes: NMR chemical shift perturbation with CBFβ
# Assay type: binding
# conditions_used: 250 uM compound; residue K 98
Each record is given Condition met if its reported NMR with CBFβ + 250 uM compound, CSP K 98 is strictly below 0.03 ppm. Records at or above 0.03 ppm are given Condition not met.

Example results:
>  <molecule>
CN(C)c1ccc2[nH]c(-c3ccccn3)nc2c1

>  <assigned_class>
Condition met

$$$$
>  <molecule>
COc1ccc(-c2nc3cc(OC)ccc3[nH]2)nc1

>  <assigned_class>
Condition met

$$$$
>  <molecule>
COc1ccc2[nH]c(-c3ccccn3)nc2c1 [NCI-320656, reference compound]

>  <assigned_class>
Condition met

$$$$
>  <molecule>
c1ccc(-c2nc3cc(N4CCCC4)ccc3[nH]2)nc1

>  <assigned_class>
Condition not met

$$$$

# evaluate next
Lookup: Please let me know if CSc1ccc2[nH]c(-c3ccccn3)nc2c1 shows NMR with CBFβ + 250 uM compound, CSP K 98 below 0.03 ppm.
Found: Condition met
